Where these numbers come from: patent US20240279281A1

# target-or-system: T1, interleukin-23 receptor (IL-23R), Q5VWK5
# T1 chain: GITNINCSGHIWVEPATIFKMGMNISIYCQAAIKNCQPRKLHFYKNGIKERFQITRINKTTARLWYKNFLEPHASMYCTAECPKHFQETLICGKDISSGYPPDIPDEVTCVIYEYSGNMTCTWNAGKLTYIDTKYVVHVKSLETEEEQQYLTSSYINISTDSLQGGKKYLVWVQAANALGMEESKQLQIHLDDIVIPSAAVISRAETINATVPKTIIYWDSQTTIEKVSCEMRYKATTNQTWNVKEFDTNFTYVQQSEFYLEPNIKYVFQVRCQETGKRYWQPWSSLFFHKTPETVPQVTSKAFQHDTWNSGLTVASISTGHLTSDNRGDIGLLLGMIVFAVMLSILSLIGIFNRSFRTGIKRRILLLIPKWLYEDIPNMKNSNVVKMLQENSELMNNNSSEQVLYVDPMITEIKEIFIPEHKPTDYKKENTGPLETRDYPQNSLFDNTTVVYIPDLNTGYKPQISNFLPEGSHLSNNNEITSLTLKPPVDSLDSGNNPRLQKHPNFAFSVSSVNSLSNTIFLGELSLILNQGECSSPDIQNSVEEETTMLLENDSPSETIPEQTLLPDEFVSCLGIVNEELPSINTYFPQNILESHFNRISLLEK
# experiment-notes: cell-based or functional assay
Positions of bridges follow the written chain, without caps; N, C: chain ends. Non-standard residues stand in square brackets, D forms with d. No end group written: not given here. 2Nal(6-OH) = N[C@@H](Cc1ccc2cc(O)ccc2c1)C(=O)O; Trp(7-Me) = Cc1cccc2c(C[C@H](N)C(=O)O)c[nH]c12; AEF = NCCOc1ccc(C[C@H](N)C(=O)O)cc1; 3Pal = N[C@@H](Cc1cccnc1)C(=O)O; NMeK = CN[C@@H](CCCCN)C(=O)O; Pen = CC(C)(S)[C@H](N)C(=O)O; lipid = not defined here; Thp = NC1(C(=O)O)CCOCC1; Sar = CNCC(=O)O
Quick reference: PBMC pSTAT3 IC50 of the listed items.

[(R)‑3‑carboxy‑2‑(4-(((R)-5-carboxy-5-hydrazineylpentyl)amino)-4-oxobutanamido)‑N,N,N‑trimethylpropan‑1‑aminium][Pen]NT[Trp(7-Me)]K(Ac)[Pen][2‑amino‑3‑(4-(2-aminoethoxy)phenyl)propanoic acid][2‑amino‑3‑(6-hydroxynaphthalen-2-yl)propanoic acid][Thp]EN[3Pal][NMeK] (disulfide 2-7 (inferred); not fully specified (residue 14); ends not checked; also: X14: lipidated N-methyl-lysine, lipid not given here) [SEQ ID NO: 204] = < 1 nM
R[Pen]NT[Trp(7-Me)]K(Ac)[Pen][AEF][2Nal(6-OH)][Thp]ENH[Sar] (disulfide 2-7 (inferred); ends not checked) [SEQ ID NO: 57] = < 1 nM
[Pen]NT[Trp(7-Me)]K(Ac)[Pen][AEF][2Nal(6-OH)][Thp]K(Ac)N[3Pal][Sar]K(lipid) (disulfide 1-6 (inferred); ends not checked; also: Lys14 lipidated, lipid not given here) [SEQ ID NO: 241] = < 1 nM
R[Pen]NT[Trp(7-Me)]K(Ac)[Pen][2‑amino‑3‑(4-(2-aminoethoxy)phenyl)propanoic acid][2‑amino‑3‑(6-hydroxynaphthalen-2-yl)propanoic acid][Thp]EN[3Pal][Sar] (disulfide 2-7 (inferred); ends not checked) [SEQ ID NO: 217] = < 0.1 nM
R[Pen]ET[Trp(7-Me)]K(Ac)[Pen][2‑amino‑3‑(4-(2-aminoethoxy)phenyl)propanoic acid][2‑amino‑3‑(6-hydroxynaphthalen-2-yl)propanoic acid][Thp]EN[3Pal][Sar]K (disulfide 2-7 (inferred); ends not checked; also: Lys15: lipidated lysine, lipid not given here) [SEQ ID NO: 148] = < 0.1 nM

Pending binder:
The reported PBMC pSTAT3 IC50 of the binder R[Pen]NT[Trp(7-Me)]K(Ac)[Pen][2‑amino‑3‑(4-(2-aminoethoxy)phenyl)propanoic acid][2‑amino‑3‑(6-hydroxynaphthalen-2-yl)propanoic acid][Thp]EN[2‑amino‑3‑(5-carbamoylpyridin-3-yl)propanoic acid][Sar] (disulfide 2-7 (inferred); ends not checked) [SEQ ID NO: 441] was < 0.1 nM
